Each recorded value in this set is attributed to PubChem BioAssay AID256.

Items are presented alongside their recorded T/C.
Tested on: CD2F1 mice, L1210 leukemia ip, survival T/C
Experiment: NCI In Vivo Anticancer Drug Screen. Data for tumor model L1210 Leukemia (intraperitoneal) in CD2F1 (CDF1) mice
Conditions: endpoint: mean survival time; dose: 200.0 mg/kg/injection; schedule: Q01DX001 (ip); vehicle: saline with Tween-80; higher = longer survival
Toxic doses and inconclusive results are not listed.

Reference set (8 entries):
> print(dat)
                                   molecule  reported.endpoint    measured.value
1     ON=C1c2c(ccc3ccccc23)-c2ccc3ccccc3c21                T/C   96 % of control
2    O=C1NC(=NC2CCCCC2)C2(CCNCC2)N1c1ccccc1                T/C  104 % of control
3              O=C1OC(=O)c2c1ccc1c(O)cccc21                T/C   90 % of control
4              O=C(Nc1cccc2ccccc12)c1ccccc1                T/C   95 % of control
5     CCOC(=O)c1ccc(OC(=O)Nc2cc(C)ccc2C)cc1                T/C  100 % of control
6  O=C(O)CCC1CC(=O)OC12CCCCC2 (stereo not given)                T/C   96 % of control
7   O=[N+]([O-])/C(=C/C=C/c1ccccc1)c1ccccc1                T/C  103 % of control
8                            FC(F)Cc1ccccc1                T/C   94 % of control

In: Please look at this molecule and report its T/C: "CN(N=C(C1CC1)C1CC1)c1ccccc1"
Out: 107 % of control

In: Please look at this molecule and report its T/C: "COc1ccc(Cl)cc1NC(=O)N/N=C(\C)CC(C)C"
Out: 95 % of control

In: Please look at this molecule and report its T/C: "c1ccc2c(c1)-c1nc3ccccc3cc1CC21CCCC1"
Out: 98 % of control

In: Please look at this molecule and report its T/C: CC(C)CCCC(C)C1CCC2C3CCC4=CC5(CCC4(C)C3CCC12C)SCCS5 (stereo not given)
Out: 91 % of control

In: Please look at this molecule and report its T/C: "CCOC(=O)c1cnc(SC)nc1NCc1cccc(C)c1"
Out: 96 % of control

In: Please look at this molecule and report its T/C: "O=C(O)c1cc2ccccc2o1"
Out: 98 % of control
